The measurements presented in this section are drawn from PubChem BioAssay AID1963832.

- Tested on: 885724-159-R-J1-PDC complex spheroid viability;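 note: spheroids exposed to compounds for 7 days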
- ASSAY NAME: Anticancer human tumor 885724-159-R-J1-PDC patient-derived pancreatic adenocarcinoma cell line growth inhibition [POLQ]
- MEASUREMENT SETUP: second compound 0.316 µM; first compound 10 µM; active compounds read low
Assign viability, T/C to each entry below.

q: What value of viability, T/C has been reported for the following compound? O=C(Nc1ccc(O)c(NS(=O)(=O)c2ccc(F)cc2)c1)c1ccc(-c2ccccc2)cc1 + Nc1ccc(C#CCN(C(=O)Cc2ncc(C(F)(F)F)cc2C(F)(F)F)c2ccc(F)cc2)nn1
a: 93.4%

q: What about C#Cc1c(F)ccc2cc(O)cc(-c3ncc4c(N5CC6CCC(C5)N6)nc(OCC56CCCN5CC(F)C6)nc4c3F)c12 (stereo not given) + Nc1ccc(C#CCN(C(=O)Cc2ncc(C(F)(F)F)cc2C(F)(F)F)c2ccc(F)cc2)nn1 ?
a: 23.4%

q: What about C=CC(=O)N1CCN(c2nc(=O)n(-c3c(C)ccnc3C(C)C)c3nc(-c4c(O)cccc4F)c(F)cc23)C(C)C1 (stereo not given) + Nc1ccc(C#CCN(C(=O)Cc2ncc(C(F)(F)F)cc2C(F)(F)F)c2ccc(F)cc2)nn1 ?
a: 90.4%

q: What about COc1cc(C2c3cc4c(cc3C(OC3OC5COC(C)OC5C(O)C3O)C3COC(=O)C23)OCO4)cc(OC)c1O (stereo not given) + Nc1ccc(C#CCN(C(=O)Cc2ncc(C(F)(F)F)cc2C(F)(F)F)c2ccc(F)cc2)nn1 ?
a: 50.6%

q: What about CC(C)n1c(=O)n(C)c2cnc3cc(F)c(-c4ccc(OCCCN5CCCCC5)nc4)cc3c21 + COC1C(OC(N)=O)C(O)C(Oc2ccc3c(O)c(NC(=O)c4ccc(O)c(CC=C(C)C)c4)c(=O)oc3c2C)OC1(C)C ?
a: 86.1%
